The origin of these recorded values is patent US20230218632A1.

Reported values of Emax for individual entries
# experimental system: TRAP1 enzyme (Homo sapiens)
# Sequence (Q12931 60-704): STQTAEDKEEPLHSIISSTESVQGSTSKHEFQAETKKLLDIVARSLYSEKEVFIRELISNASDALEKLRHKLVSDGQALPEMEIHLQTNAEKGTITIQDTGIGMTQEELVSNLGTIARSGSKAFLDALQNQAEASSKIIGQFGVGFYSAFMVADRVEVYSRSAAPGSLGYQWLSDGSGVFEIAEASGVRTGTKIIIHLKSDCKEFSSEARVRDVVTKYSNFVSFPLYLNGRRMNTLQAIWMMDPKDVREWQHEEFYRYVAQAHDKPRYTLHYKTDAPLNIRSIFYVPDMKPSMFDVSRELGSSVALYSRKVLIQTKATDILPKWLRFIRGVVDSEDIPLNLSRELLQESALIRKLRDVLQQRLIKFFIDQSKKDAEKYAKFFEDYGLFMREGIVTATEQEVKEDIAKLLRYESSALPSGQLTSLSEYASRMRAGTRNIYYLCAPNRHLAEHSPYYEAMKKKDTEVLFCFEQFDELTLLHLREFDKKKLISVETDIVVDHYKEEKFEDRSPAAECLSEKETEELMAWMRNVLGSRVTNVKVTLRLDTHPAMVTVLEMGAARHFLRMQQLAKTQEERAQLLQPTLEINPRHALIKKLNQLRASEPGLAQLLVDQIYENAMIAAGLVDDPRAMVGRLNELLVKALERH
# method summary: ADP Glo assay (ATPase activity of TRAP1)
# Assay type: biochemical
# test context: maximal percent activation; read-out: ADP GLO DRC: Mean Emax
# Experimental: Potency of test compounds to modulate the ATPase activity of TRAP1 enzyme was evaluated using ADP Glo assay. The assay is based on quantification of the ADP generated from ATP in the ATPase reaction. […] Second, the Kinase Detection Reagent is added to simultaneously convert ADP to ATP and allow the newly synthesized ATP to be measured using a luciferase/luciferin reaction. […]

Take a look at these entries with their results.
>>> result("Cn1cnc(C(=O)Nc2ccc3c(c2)S(=O)(=O)N(c2ccc(C(F)(F)F)cc2)CCO3)c1")
"150 to 200%"
>>> result("Cc1cnccc1C(=O)Nc1ccc2c(c1)S(=O)(=O)N(c1ccc(C(F)(F)F)cc1)CCO2")
"150 to 200%"
>>> result("Cc1ncncc1C(=O)Nc1ccc2c(c1)S(=O)(=O)N(c1ccc(C(F)(F)F)cc1)CCO2")
"150 to 200%"

input: Look up Emax: O=C(Nc1ccc2c(c1)S(=O)(=O)N(c1ccc(C(F)(F)F)cc1)CCO2)c1ccncc1
output: 150 to 200%

input: Field request: Emax | item: NCc1cccc(C(=O)Nc2ccc3c(c2)S(=O)(=O)N(c2ccc(C(F)(F)F)cc2)CCO3)n1
output: > 200%

input: What does the data say about its Emax? Entry: CC(C)c1oncc1C(=O)Nc1ccc2c(c1)S(=O)(=O)N(c1ccc(C(F)(F)F)cc1)CCO2
output: 150 to 200%

input: Given the compound O=C(Nc1ccc2c(c1)S(=O)(=O)N(c1ccc(C(F)(F)F)cc1)CCO2)c1csc2c1CNCC2 , what is its reported Emax?
output: > 200%
